System: TNFSF10
Design: species or system human
Reported property: EFFECT

In [3]: df
Out[3]:
                         chemical_structure  reported_property  result_value
0  CC1=C(/C=C/C(C)=C/C=C/C(C)=C/C=C/C=C(C)/C=C/C=C(C)/C=C/C2=C(C)CCCC2(C)C)C(C)(C)CCC1             EFFECT    Beneficial
1                           Oc1cccc2cccnc12             EFFECT    Beneficial
2                                       O=O             EFFECT    Beneficial
